System: MDA-MB-468 breast
procedure.summary: NCI tumour cell line growth inhibition, 48 h
measured.attribute: TGI (µM)
Express your answer in µM, writing the number without its unit.

Worked examples, 5 compounds total:
Prompt line: Look at this compound and give its reported TGI. NC1=C(Br)C(=O)c2ncccc2C1=O
Response line: 2.13

Prompt line: Consider next the compound CCCCCCCCCCCCCCCC[N+](C)(C)CCN(Cc1ccc(OC)cc1)c1ncccn1 in the same way.
Response line: 3.58

Prompt line: Cool, now CN(C)CCOc1ccc(C(=O)C2[C@H](c3ccc(Cl)cc3)[C@@H](c3ccccc3)NC23C(=O)Nc2ccc(Cl)cc23)cc1 (stereo not given in full)
Response line: 22.3

Prompt line: // next record C=C(C)[C@@H]1CC[C@]2(C(=O)NCCNCCNCCN)CC[C@]3(C)[C@H](CC[C@@H]4[C@@]5(C)CC[C@H](O)C(C)(C)[C@@H]5CC[C@]43C)[C@@H]12
Response line: 22.7

Prompt line: Then what about the compound Cc1ccc2cc3c(ccc4ccccc43)c3c2c1CC3 ?
Response line: 0.372

Next:
Prompt line: I would be grateful if you could share the reported TGI for Cc1nc2sc(C(=O)Nc3cccc4ccccc34)c(N)c2cc1C(=O)/C=C/c1ccccc1 .
Response line: 0.745

Prompt line: Record: N#CC1=C(c2cccs2)Nc2c(c(-c3ccccc3)nn2-c2ccccc2)C12C(=O)Nc1ccccc12 (stereo not given)
Response line: 32.4

---

System: MDA-MB-468 breast
procedure.summary: NCI tumour cell line growth inhibition, 48 h; in the data active means GI50 below about 0.43 µM; inactive means the rest
Returns: one label drawn from yes for active, no for inactive

Prompt line: Can you look up the reported call for CC(C)[C@@]12C[C@@H](OC(=O)COC(=O)/C=C/c3ccccc3)[C@@](C)(O1)[C@@H]1CC[C@@H](C)[C@H]1[C@@H]2OC(=O)/C=C/c1ccccc1 for me?
Response line: no

Prompt line: Would you kindly repeat that for Cc1nc2cnc3cc(F)c(-c4ccc(Oc5ncccn5)cc4Cl)cc3c2n1[C@H]1CCN(C(=O)CO)C[C@@H]1F ?
Response line: no

Prompt line: Same question, COc1ccc(-c2cc(-c3ccccc3)nc(N3CCN(CCNc4ccnc5cc(Cl)ccc45)CC3)n2)cc1 this time
Response line: no

---

Test system: MDA-MB-468 breast
procedure.summary: NCI tumour cell line growth inhibition, 48 h
measured.attribute: TGI

Prompt line: Find the recorded TGI belonging to COc1cc(Cn2c(=S)ss/c2=N\C(=S)N(C)C)cc(OC)c1OC and report it.
Response line: > 100 µM

Prompt line: Input CC(C)[C@@]12C[C@@H](OC(=O)COC(=O)/C=C/c3ccccc3)[C@@](C)(O1)[C@@H]1CC[C@@H](C)[C@H]1[C@@H]2OC(=O)/C=C/c1ccccc1
Response line: > 100 µM

Prompt line: Then what about the molecule COc1ccc(-c2nnc(SCC(=O)Nc3ccc(/C(C)=N\O)cc3)n2-c2ccccc2)cc1OC ?
Response line: > 100 µM

---

System: MDA-MB-468 breast
procedure.summary: NCI tumour cell line growth inhibition, 48 h; in the data active means GI50 below about 0.43 µM; inactive means the rest
Thanks in advance; please answer with one of these: label 1 = active, label 0 = inactive

Prompt line: // param item: N#Cc1c2cccnc2c2nnc3cc(Cl)c(Cl)cc3n12 ; yields the recorded call
Response line: label 0

Next:
Prompt line: Please state the recorded outcome for this molecule: CC(CN1CCN(C)CC1)CN1c2ccccc2Sc2ccc(C(F)(F)F)cc21 (stereo not drawn)
Response line: label 0

Prompt line: Record: Cn1ccnc1C(=O)/C=C/c1ccc(CC(=O)Nc2ccc(S(F)(F)(F)(F)F)cc2)cc1
Response line: label 0

Prompt line: Okay, and N=c1c2c(-c3ccccc3)c(-c3ccccc3)n(Cc3ccccc3)c2ncn1CCCO ?
Response line: label 0

Prompt line: Here is the next molecule: C=CC1=C[C@@H]2[C@@H]3O[C@]4(CC[C@H](O4)[C@@H](C)C[C@@H](O)C3=O)C[C@H](O)C3=NCC[C@@]32CC1
Response line: label 1

Prompt line: And then C/C(=C\c1ccn(-c2ccc(N)c(F)c2)n1)[C@@H]1C[C@@H]2O[C@]2(C)CCC[C@H](C)[C@H](O)[C@@H](C)C(=O)C(C)(C)[C@@H](O)CC(=O)O1 , what is it?
Response line: label 1

Prompt line: Next entry: COc1ccc(C(=O)COc2cccc(/C=C3\CSc4ccccc4C3=O)c2)cc1
Response line: label 0

Prompt line: Same thing, different molecule: CC1=CCC(OC(=O)C(C)(C)CCC(O)(C(=O)OC2(C(C)C)CCC3(C)OC3C2)C(C)C)(C(C)C)CC1 (stereo not drawn)
Response line: label 1
